Taken from patent US20260007684A1.

- target_desc: mouse NLRP3 (Mus musculus (Mouse), UniProt Q8R4B8)
- Sequence (Q8R4B8 whole entry): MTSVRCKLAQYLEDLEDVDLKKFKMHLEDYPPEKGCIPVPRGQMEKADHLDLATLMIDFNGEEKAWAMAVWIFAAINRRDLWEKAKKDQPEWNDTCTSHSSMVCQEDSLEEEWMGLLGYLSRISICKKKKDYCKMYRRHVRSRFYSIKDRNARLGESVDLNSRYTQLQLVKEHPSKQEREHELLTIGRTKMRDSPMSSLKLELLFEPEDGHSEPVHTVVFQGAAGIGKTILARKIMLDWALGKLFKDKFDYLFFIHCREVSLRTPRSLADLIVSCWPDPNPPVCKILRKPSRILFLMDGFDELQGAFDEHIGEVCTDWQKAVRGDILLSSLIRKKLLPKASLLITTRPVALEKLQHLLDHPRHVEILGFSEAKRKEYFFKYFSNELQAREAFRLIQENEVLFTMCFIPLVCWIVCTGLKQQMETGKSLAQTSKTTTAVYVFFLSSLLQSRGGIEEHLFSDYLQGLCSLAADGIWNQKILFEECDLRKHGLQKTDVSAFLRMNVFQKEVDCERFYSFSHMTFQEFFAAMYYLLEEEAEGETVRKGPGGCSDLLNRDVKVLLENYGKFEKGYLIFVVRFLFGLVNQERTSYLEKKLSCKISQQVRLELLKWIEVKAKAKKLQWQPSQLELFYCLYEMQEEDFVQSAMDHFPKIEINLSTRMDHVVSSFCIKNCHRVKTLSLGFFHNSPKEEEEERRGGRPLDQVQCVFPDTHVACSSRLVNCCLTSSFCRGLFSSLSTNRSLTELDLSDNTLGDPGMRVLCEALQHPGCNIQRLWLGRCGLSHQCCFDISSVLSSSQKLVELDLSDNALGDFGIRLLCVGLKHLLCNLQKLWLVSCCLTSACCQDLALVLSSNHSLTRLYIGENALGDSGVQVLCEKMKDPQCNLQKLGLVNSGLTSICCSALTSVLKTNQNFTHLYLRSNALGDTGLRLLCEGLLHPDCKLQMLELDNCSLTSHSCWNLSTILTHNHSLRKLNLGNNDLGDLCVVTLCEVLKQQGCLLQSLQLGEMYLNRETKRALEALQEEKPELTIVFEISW
- protocol_text: Mouse Whole Blood (mWB) NLRP3 Assay (LPS/ATP, IL-1b)
- Type: cell-based
pIC50: −log10 of the molar value.
Use Criterion met when the recorded pIC50 is no lower than 6; use Criterion not met when it is lower.

Example cases with answers are listed next.
O=C(N[C@@H]1CCCN(c2nnn[nH]2)C1)C1(c2ccc(Cl)cc2)CC1 [Compound 10A] : Criterion not met
O=C(N[C@@H]1CCCCN(c2nnn[nH]2)C1)C1(c2ccc(Cl)cc2)CC1 [Compound 51A] : Criterion not met
C[C@H]1C[C@@H](NC(=O)C2(c3ccc(Cl)cc3O)CC2)CN(c2nnn[nH]2)C1 [Compound 47A] : Criterion met
O=C(Nc1cccc(-c2nnn[nH]2)c1)C1(c2ccc(Cl)cc2)CC1 [Comparative Example B1, reference compound] : Criterion not met
C[C@H]1C[C@@H](NC(=O)C2(c3ccc(C(F)(F)F)cc3O)CC2)CN(c2nnn[nH]2)C1 [Compound 16A] : Criterion met

Now for another entry.
# check: pIC50 of C[C@H]1C[C@@H](NC(=O)C2(c3ccc(Cl)cc3)CC2)CN(c2nnn[nH]2)C1 [Compound 46A] is greater than or equal to 6
Criterion met
